target: IKZF2 (Homo sapiens, UniProt Q96SW2+Q9UKS7); assay: HEK293 HiBiT in vitro degradation of IKZF2; assay type: cell-based; design: expressed in transfected cells; details: HEK293 HiBiT, 18-24 hr incubation, normalized to DMSO control; read-out: IKZF2 EC50
Sequence (Q9UKS7 1-500 isoform Q9UKS7-2): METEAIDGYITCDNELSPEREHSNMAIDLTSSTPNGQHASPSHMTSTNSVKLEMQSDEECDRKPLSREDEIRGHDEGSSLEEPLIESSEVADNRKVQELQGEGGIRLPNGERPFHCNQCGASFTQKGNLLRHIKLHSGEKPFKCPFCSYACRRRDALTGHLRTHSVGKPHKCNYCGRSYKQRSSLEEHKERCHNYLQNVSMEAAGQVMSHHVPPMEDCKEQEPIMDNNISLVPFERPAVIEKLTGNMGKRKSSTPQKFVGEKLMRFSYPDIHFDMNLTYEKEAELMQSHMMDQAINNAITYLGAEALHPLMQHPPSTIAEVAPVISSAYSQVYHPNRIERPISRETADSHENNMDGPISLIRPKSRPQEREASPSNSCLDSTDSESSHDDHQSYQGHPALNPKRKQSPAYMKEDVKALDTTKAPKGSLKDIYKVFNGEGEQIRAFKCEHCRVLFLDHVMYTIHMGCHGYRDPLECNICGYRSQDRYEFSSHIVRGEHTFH
Sequence (Q96SW2 whole entry): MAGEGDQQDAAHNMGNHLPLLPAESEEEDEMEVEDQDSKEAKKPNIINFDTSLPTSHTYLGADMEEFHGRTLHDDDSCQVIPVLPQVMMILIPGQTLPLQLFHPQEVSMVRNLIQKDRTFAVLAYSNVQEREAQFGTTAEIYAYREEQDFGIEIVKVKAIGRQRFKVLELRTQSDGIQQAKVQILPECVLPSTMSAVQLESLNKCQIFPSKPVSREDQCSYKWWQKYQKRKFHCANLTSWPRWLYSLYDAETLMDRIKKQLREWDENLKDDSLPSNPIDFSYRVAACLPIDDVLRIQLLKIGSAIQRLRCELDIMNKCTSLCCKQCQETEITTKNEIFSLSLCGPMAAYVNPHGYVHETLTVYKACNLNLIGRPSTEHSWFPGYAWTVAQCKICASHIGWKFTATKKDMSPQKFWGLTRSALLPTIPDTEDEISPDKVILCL
Sequence (Q16531 whole entry partner): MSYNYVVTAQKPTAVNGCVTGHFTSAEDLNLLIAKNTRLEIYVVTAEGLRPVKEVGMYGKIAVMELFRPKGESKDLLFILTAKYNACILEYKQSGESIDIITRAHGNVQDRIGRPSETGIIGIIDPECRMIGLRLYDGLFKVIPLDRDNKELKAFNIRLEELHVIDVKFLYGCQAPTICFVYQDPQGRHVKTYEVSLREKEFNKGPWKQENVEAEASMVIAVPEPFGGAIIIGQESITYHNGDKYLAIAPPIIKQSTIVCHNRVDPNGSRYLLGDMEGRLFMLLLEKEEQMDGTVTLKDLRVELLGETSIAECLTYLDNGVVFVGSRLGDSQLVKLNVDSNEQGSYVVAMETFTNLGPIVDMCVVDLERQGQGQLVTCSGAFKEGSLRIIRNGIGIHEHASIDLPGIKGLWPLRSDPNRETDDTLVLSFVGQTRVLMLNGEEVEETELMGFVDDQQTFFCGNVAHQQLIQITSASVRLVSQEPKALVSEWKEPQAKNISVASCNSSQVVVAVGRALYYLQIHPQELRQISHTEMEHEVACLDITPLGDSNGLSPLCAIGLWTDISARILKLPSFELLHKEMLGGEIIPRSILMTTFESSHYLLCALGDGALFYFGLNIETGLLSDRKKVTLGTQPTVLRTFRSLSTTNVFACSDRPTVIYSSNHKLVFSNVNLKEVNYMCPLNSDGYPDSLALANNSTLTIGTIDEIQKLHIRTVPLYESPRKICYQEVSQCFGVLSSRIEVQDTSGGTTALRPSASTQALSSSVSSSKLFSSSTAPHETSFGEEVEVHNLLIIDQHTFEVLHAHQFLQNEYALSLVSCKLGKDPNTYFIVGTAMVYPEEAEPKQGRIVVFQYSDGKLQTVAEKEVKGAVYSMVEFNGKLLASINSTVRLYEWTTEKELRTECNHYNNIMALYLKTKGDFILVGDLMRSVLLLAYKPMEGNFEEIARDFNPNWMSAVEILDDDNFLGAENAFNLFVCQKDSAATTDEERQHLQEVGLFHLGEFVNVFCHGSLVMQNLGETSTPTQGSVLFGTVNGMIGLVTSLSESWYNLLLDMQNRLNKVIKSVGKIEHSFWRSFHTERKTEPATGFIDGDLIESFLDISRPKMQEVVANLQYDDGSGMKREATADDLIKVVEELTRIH
MEASURED_QUANTITY: log10 of DC50 (log10 of the value in nM)

[
  {
    "COMPOUND": "O=C1CCC(N2Cc3cc(C[C@H]4CCCC[C@@H]4NC4CCc5c(C(F)(F)F)n[nH]c5C4)ccc3C2=O)C(=O)N1 (stereo partly shown) [Example 375]",
    "MEASURED_QUANTITY": "log10 of DC50",
    "NUMERIC_READOUT": 0.60
  },
  {
    "COMPOUND": "O=C1CCC(N2Cc3c(ccc(C[C@H]4OCCC[C@@H]4NC4CCC(C(F)F)CC4)c3F)C2=O)C(=O)N1 (single isomer, unassigned) [Example 282]",
    "MEASURED_QUANTITY": "log10 of DC50",
    "NUMERIC_READOUT": 0.85
  },
  {
    "COMPOUND": "O=C1CCC(N2Cc3cc(C[C@H]4CCCC[C@@H]4NCc4ncc(F)cc4F)ccc3C2=O)C(=O)N1 (stereo partly shown)",
    "MEASURED_QUANTITY": "log10 of DC50",
    "NUMERIC_READOUT": 1.83
  },
  {
    "COMPOUND": "O=C1CCC(N2Cc3cc(C[C@H]4CCCC[C@@H]4NCc4cscn4)ccc3C2=O)C(=O)N1 (stereo partly shown)",
    "MEASURED_QUANTITY": "log10 of DC50",
    "NUMERIC_READOUT": 1.66
  },
  {
    "COMPOUND": "O=C1CCC(N2Cc3cc(C[C@H]4CCCC[C@@H]4NC4CCC(F)(F)CC4)c(F)cc3C2=O)C(=O)N1 (stereo partly shown)",
    "MEASURED_QUANTITY": "log10 of DC50",
    "NUMERIC_READOUT": 1.00
  },
  {
    "COMPOUND": "O=C1CCC(N2Cc3cc(C[C@H]4CCCC[C@@H]4N4CC(OCc5ccccc5)C4)ccc3C2=O)C(=O)N1 (stereo partly shown)",
    "MEASURED_QUANTITY": "log10 of DC50",
    "NUMERIC_READOUT": 1.26
  },
  {
    "COMPOUND": "O=C1CCC(N2Cc3cc(C[C@H]4CCCC[C@@H]4NC4CCC(F)(F)CC4)ccc3C2=O)C(=O)N1 (stereo partly shown)",
    "MEASURED_QUANTITY": "log10 of DC50",
    "NUMERIC_READOUT": 0.00
  }
]
